TESTED_ON: RARα (Homo sapiens)
Construct: expressed in transfected cells; host or cells: CV-1 cells (ATCC)
Sequence (P10276 whole entry, species assumed): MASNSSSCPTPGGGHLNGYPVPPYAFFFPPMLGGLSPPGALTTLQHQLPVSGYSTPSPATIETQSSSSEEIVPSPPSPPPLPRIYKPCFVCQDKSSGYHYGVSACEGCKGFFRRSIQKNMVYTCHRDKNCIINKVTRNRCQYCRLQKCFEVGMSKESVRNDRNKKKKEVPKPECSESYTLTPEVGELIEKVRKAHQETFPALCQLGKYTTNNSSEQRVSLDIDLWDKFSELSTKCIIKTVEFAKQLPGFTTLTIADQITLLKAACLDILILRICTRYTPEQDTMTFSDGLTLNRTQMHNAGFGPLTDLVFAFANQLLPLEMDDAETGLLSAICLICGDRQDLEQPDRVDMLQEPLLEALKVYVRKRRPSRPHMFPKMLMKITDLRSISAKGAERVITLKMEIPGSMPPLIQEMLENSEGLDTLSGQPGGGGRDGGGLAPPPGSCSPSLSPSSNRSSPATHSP
PROCEDURE_DETAILS: RARE-luciferase reporter assay in transfected CV-1 cells (affinity to retinoic acid receptor), RARα
Type: cell-based
COND: treated 24 hours at final concentration 10^−4M, control group 1000
RESULT_TYPE: Luciferase activity RARα
The reply should be a number, written without any unit.

What does the data say about its Luciferase activity RARα? Entry: "CCCc1ccc(C(=O)Nc2ccc(CC(=O)NO)cc2)cc1"
13920

Field entry: "CCc1ccc(C(=O)N(C)c2ccc(C(=O)NO)cc2)cc1"
14500

Continue with "CN(O)C(=O)c1ccc(C(=O)NC23CC4CC(CC(C4)C2)C3)cc1"
23100

Then this compound: "CCCc1ccc(C(=O)N(C)c2ccc(C(=O)NO)cc2)cc1"
12300

Another compound: "Cc1ccc(N(C)C(=O)c2ccc(C(=O)NO)cc2)cc1"
13200

Moving on to the next compound: "CN(C(=O)c1ccc(C(C)(C)C)cc1)c1ccc(C(=O)NO)cc1"
10020

What do you get for "CC(C)c1ccc(C(=O)Nc2ccc(C(=O)NO)cc2)cc1" ?
14500

"Cc1ccc(NC(=O)c2ccc(C(=O)NO)cc2)cc1" ?
14500

Record: "CCCCc1ccc(N(C)C(=O)c2ccc(C(=O)NO)cc2)cc1"
13400

Field entry: "CN(O)C(=O)c1ccc(N(C)C(=O)C23CC4CC(CC(C4)C2)C3)cc1"
12100

Do the same for "Cc1ccc(C(=O)Nc2ccc(CC(=O)NO)cc2)cc1" please
12100

Same again, this time with "Cc1cccc(C(=O)Nc2ccc(C(=O)NO)cc2)c1"
11600

Consider next the compound "CCCCc1ccc(NC(=O)c2ccc(C(=O)NO)cc2)cc1" in the same way.
14300

Record: "CCCCc1ccc(C(=O)Nc2ccc(C(=O)NO)cc2)cc1"
12000

Same for "Cc1ccc(C(=O)Nc2ccc(C(=O)NO)cc2)cc1C"
12000

Thanks! And "Cc1ccc(C(=O)Nc2ccc(C(=O)NO)cc2)cc1" ?
12000

Further, for "CCCc1ccc(NC(=O)c2ccc(C(=O)NO)cc2)cc1" ?
17500

Same read-out for "CC(C)c1ccc(N(C)C(=O)c2ccc(C(=O)NO)cc2)cc1" ?
12300

Subsequent entry: "CC(C)c1ccc(NC(=O)c2ccc(C(=O)NO)cc2)cc1"
18700

// next record "CCc1ccc(C(=O)Nc2ccc(C(=O)NO)cc2)cc1"
12000

Same question for "CCc1ccc(N(C)C(=O)c2ccc(C(=O)NO)cc2)cc1" please.
15500

What about "Cc1ccc(C(=O)Nc2ccc(CC(=O)NO)cc2)cc1C" ?
23100

Do the same for "CCc1ccc(NC(=O)c2ccc(C(=O)NO)cc2)cc1" please
19000

Moving on to the next compound: "Cc1ccc(C(=O)N(C)c2ccc(C(=O)NO)cc2)cc1C"
12200

Request: "CC(C)c1ccc(C(=O)Nc2ccc(CC(=O)NO)cc2)cc1"
12900

These measurements were taken from patent US7282522B2.
